This collection of values is drawn from PubChem BioAssay (NCI).

Below: a set of entries, each annotated with reported growth.
- Test system: UACC-62 melanoma
- assay-remarks: NCI-60 one-dose screen, 48 h (100 = growth as untreated, 0 = no growth, -100 = all killed)
- protocol-conditions: 10 µM unless noted
The panel holds about 83,000 compounds, 20% with a hit somewhere; the sample as a whole holds those more often. Calls of active or inactive are those of the source. How the source made its calls: active means growth percent below 10; inactive means the rest.
measure-name: growth

# compound, assayed-system, measure-name, recorded-measurement
records = [
    ("CNC(=O)Oc1ccccc1-c1ccccc1", "UACC-62 melanoma", "growth", "102% (inactive)"),
    ("CN1C(=O)C(CCC(=O)O)N=C(c2cccc(O)c2)c2ccccc21 (centres undefined)", "UACC-62 melanoma", "growth", "82% [30 µM] (inactive)"),
    ("Nc1ccc(N)c2c1Oc1ccccc1O2", "UACC-62 melanoma", "growth", "98.6% (inactive)"),
    ("CCCC(C)(C)c1ccc2c(c1)OC(C)(C)[C@@H]1CC=C(C)C[C@@H]21", "UACC-62 melanoma", "growth", "98% (inactive)"),
]
